# system: KEAP1 C151 (Homo sapiens, UniProt Q14145)
# Construct: treating 500 μg of cell lysate generated from MDA-MB-468 breast cancer cells with DMSO or compound; endogenous in cells
# Sequence (Q14145 whole entry): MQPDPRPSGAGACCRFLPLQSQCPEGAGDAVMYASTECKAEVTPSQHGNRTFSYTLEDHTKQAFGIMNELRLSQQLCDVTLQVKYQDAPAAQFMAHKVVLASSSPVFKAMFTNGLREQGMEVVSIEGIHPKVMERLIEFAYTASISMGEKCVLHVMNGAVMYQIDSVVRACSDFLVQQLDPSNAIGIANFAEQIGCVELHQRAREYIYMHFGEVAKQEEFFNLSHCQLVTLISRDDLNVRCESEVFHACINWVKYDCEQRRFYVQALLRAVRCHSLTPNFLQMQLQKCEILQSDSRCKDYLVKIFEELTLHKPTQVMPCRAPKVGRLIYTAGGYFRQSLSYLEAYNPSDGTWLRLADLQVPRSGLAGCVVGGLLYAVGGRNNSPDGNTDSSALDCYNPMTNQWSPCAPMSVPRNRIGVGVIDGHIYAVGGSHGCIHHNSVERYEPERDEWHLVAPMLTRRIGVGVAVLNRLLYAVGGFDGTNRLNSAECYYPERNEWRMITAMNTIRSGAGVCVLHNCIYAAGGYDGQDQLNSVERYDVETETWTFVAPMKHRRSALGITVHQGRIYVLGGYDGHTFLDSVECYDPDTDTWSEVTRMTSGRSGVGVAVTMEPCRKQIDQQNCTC
# experimental protocol: Nrf2 TMT measurement: in vitro TE50 for KEAP1 C151 (IA-DTB competition, targeted TMT mass spectrometry) in MDA-MB-468 cell lysate
# condition: in vitro target engagement of KEAP1 C151, targeted TMT, read-out: KEAP1_C151 TE50
assay metric: IC50 (nM)

Sample answers from the record:
compound: C=CC(=O)N1CCOC[C@H]1c1cc(Cl)cc(-c2ncccn2)c1 (single isomer, unassigned)
IC50 [nM]: 22.8

compound: C=CC(=O)N1[C@H](C)COC[C@H]1c1cc(Cl)nc(-c2ccnc(N)n2)c1 (single isomer, unassigned)
IC50 [nM]: 83

compound: C=CC(=O)N1CCOCC1c1cc(Cl)cc(-c2nccc(C(N)=O)n2)c1 (single isomer, unassigned)
IC50 [nM]: 86

compound: C=CC(=O)N1CC(C)(C)OCC1c1cc(Cl)nc(-c2ccnc(C)n2)c1 (single isomer, unassigned)
IC50 [nM]: 110

compound: C=CC(=O)N1CC(C)(C)OCC1c1cc(Cl)nc(-c2ccc(F)c(C(N)=O)c2)c1 (single isomer, unassigned)
IC50 [nM]: 88.4

[A] C=CC(=O)N1CC2(COC2)C1c1cc(Cl)cc(-c2ncnc(N)n2)c1 (single isomer, unassigned)
[B] C=CC(=O)N1CCOC[C@H]1c1cc(Cl)cc(-c2ncncn2)c1 (single isomer, unassigned)
## Input Parameter check: reported IC50 is higher for which label, A or B ? Return value: the label identifying the chosen record.
## Output A

###

# system: KEAP1 C151 (Homo sapiens, UniProt Q14145)
# Construct: treating 500 μg of cell lysate generated from MDA-MB-468 breast cancer cells with DMSO or compound; endogenous in cells
# experimental protocol: Nrf2 TMT measurement: in vitro TE50 for KEAP1 C151 (IA-DTB competition, targeted TMT mass spectrometry) in MDA-MB-468 cell lysate
# condition: in vitro target engagement of KEAP1 C151, targeted TMT, read-out: KEAP1_C151 TE50
assay metric: IC50 (µM)

compound: C=CC(=O)N1CC(C)(C)OC[C@H]1c1cc(Cl)cc(-c2ccc3nccnc3c2)c1 (single isomer, unassigned)
IC50 / µM: 0.02

[A] C=CC(=O)N1CCOCC1c1cc(Cl)cc(-c2ccc3nccnc3c2)c1 (single isomer, unassigned)
[B] C=C(Cl)C(=O)N1CCOC[C@H]1c1cc(Cl)cc(-c2ncnc(N)n2)c1 (single isomer, unassigned)
[C] C=CC(=O)N1CCOC[C@H]1c1cc(Cl)cc(C2CNC(=S)CO2)c1 (single isomer, unassigned) [Compound 240]
## Input Sort by IC50, descending. To answer, write out the labels according to the requested order.
## Output B, C, A

###

# system: KEAP1 C151 (Homo sapiens, UniProt Q14145)
# Construct: treating 500 μg of cell lysate generated from MDA-MB-468 breast cancer cells with DMSO or compound; endogenous in cells
# experimental protocol: Nrf2 TMT measurement: in vitro TE50 for KEAP1 C151 (IA-DTB competition, targeted TMT mass spectrometry) in MDA-MB-468 cell lysate
# condition: in vitro target engagement of KEAP1 C151, targeted TMT, read-out: KEAP1_C151 TE50
pIC50: −log10 of the molar value.
assay metric: pIC50

compound: C=CC(=O)N1CCOC[C@H]1c1cc(Cl)cc(N2CCNC(=O)C2)c1 (single isomer, unassigned) [Compound 228]
result number: 6.89
//
compound: C=CC(=O)N1CCN(C(C)=O)C[C@H]1c1cc(Cl)cc(-c2cc(N)ncn2)c1 (single isomer, unassigned) [Compound 187]
result number: 6.92
//
compound: C=CC(=O)N1CCS(=O)(=O)CC1c1cc(Cl)cc(-c2nnn(C)n2)c1 (single isomer, unassigned) [Compound 32]
result number: 7.20
//
compound: C=CC(=O)N1CC(C)(C)OC[C@H]1c1cc(Cl)cc(-c2ncc(N)cn2)c1 (single isomer, unassigned) [Compound 156]
result number: 6.98

[1] C=CC(=O)N1CCOCC1c1cc(Cl)cc(-c2cc[nH]c(=O)c2)c1 (single isomer, unassigned) [Compound 11]
[2] C=CC(=O)N1CCOC[C@H]1c1cc(Cl)cc(-c2ccnc(C)c2)c1 (single isomer, unassigned) [Compound 90]
## Input When their pIC50 values are compared, which is larger, 1 or 2 ? Could you answer with the label of the item you picked?
## Output 1
(1: 7.17, 2: 6.92)
